- SYSTEM_NAME: Intercellular adhesion molecule (ICAM-1), Integrin alpha-L/beta-2 (Homo sapiens, UniProt P05107+P05362+P20701)
- Sequence (P20701 whole entry): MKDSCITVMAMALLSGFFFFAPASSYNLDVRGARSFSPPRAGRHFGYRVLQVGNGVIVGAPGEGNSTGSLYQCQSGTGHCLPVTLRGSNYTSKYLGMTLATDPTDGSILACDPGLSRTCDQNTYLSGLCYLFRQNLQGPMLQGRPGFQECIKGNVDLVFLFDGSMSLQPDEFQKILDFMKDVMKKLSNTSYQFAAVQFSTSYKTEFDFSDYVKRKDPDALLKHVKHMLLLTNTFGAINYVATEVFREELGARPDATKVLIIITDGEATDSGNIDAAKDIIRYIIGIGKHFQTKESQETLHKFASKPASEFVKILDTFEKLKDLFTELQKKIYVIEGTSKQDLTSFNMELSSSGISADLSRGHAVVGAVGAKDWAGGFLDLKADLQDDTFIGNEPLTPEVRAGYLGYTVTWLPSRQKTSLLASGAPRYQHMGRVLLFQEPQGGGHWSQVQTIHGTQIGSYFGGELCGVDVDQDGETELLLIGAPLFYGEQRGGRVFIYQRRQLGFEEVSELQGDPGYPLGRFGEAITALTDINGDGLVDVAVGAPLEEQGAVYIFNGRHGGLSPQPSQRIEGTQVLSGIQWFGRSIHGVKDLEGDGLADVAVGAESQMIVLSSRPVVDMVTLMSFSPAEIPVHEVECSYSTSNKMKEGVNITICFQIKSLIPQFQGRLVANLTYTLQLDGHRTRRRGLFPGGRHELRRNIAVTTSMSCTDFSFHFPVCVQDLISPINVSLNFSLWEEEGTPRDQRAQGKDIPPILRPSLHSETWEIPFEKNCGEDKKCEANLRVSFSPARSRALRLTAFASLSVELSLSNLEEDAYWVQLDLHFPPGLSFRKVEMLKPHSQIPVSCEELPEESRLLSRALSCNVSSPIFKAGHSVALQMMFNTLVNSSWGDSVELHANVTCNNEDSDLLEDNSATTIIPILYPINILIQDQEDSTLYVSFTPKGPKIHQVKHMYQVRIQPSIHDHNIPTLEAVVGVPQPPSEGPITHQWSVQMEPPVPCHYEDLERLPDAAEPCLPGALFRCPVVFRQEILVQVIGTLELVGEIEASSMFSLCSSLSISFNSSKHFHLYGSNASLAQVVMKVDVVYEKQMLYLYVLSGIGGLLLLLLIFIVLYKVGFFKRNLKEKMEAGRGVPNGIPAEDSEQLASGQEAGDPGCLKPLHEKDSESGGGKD
- Sequence (P05362 whole entry): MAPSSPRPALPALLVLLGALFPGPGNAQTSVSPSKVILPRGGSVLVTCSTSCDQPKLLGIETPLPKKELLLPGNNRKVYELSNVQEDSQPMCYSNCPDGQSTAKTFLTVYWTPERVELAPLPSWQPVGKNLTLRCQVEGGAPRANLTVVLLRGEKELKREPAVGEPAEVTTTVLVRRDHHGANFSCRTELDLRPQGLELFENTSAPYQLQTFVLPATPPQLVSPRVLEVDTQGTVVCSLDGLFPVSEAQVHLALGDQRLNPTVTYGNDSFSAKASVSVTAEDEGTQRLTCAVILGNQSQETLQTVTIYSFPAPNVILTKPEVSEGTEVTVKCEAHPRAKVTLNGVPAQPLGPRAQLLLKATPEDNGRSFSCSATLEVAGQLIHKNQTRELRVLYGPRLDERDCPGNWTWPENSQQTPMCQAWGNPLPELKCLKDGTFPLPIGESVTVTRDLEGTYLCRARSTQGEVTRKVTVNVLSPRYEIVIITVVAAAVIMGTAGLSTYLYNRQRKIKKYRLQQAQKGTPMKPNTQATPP
- Sequence (P05107 whole entry): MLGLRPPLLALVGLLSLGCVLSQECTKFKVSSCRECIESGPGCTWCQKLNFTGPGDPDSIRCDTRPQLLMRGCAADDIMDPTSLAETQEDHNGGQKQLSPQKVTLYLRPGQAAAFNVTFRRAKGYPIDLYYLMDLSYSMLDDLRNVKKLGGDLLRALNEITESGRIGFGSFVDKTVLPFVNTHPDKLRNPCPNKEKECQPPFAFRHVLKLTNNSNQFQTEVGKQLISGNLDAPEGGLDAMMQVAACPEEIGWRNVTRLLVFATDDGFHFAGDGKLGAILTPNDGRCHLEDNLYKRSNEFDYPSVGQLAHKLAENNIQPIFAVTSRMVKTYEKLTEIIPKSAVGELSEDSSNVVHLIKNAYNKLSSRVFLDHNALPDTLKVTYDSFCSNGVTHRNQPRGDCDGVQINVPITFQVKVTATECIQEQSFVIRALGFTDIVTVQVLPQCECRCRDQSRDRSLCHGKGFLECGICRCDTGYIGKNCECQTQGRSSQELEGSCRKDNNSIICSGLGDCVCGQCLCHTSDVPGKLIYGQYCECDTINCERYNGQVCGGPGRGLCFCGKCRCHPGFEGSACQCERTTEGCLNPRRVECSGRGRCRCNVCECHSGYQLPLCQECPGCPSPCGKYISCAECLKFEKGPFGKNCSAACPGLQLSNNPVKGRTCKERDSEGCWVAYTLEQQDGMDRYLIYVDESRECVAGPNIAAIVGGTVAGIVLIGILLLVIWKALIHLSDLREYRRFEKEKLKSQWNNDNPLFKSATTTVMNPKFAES
- PROTOCOL_DETAILS: Inhibition of LFA1/ICAM1-mediated CFSE-labeled TPA-stimulated human HL60 cell adhesion to ICAM1 expressing human HeLa cells after 45 mins by fluorescence analysis
- Type: cell-based
TEST_READOUT: pIC50
# pIC50: negative log10 of molar concentration; output just the value

Query: pIC50; subject: C=C1[C@@H](C)[C@H]2[C@H](Cc3ccccc3)NC(=O)[C@]23OC(=O)/C=C/[C@H](O)CCC[C@@H](C)C/C=C/[C@H]3[C@@H]1O [CYTOCHALASIN B] 6.28

---

# selectivity ratio annotations
- PROTOCOL_DETAILS: Selectivity index, ratio of IC50 of african green monkey (Cercopithecus aethiops) Vero cells to IC50 for chloroquine-sensitive Plasmodium falciparum D6
- Format: toxicity, cell-based
- CONDITION_DESCRIPTION: read-out: Ratio IC50

Look at this compound and give its reported selectivity ratio. COc1cnc2c3c(nccc13)C(=O)c1ccccc1-2 > 17

Subsequent entry: COc1ccc2c(OC)c3c4c(ccnc4c2c1)C(=O)C(=O)N3C > 40

Next: COc1c2c3c(ccnc3c3ccccc13)C(=O)C(=O)N2C > 8.7

Then C[C@@H]1CC[C@H]2[C@@H](C)C(=O)O[C@@H]3O[C@@]4(C)CC[C@@H]1[C@]32OO4 ? > 952

Could you do the same for O=C1c2ccccc2-c2nccc3ccnc1c23 , please? > 11

---

- Tested on: Cryptococcus neoformans
- PROTOCOL_DETAILS: Antifungal activity against Cryptococcus neoformans ATCC 90113 after 48 hrs by modified well microplate assay
- Type: functional, organism-based
- CONDITION_DESCRIPTION: Cryptococcus neoformans, ATCC 90113, 48 h; read-out: IC50
TEST_READOUT: IC50 (µg/mL)
Unit µg/mL implied. Number only.

What does the data say about its IC50? Entry: C[C@@H]1[C@H](O)[C@@H](C)/C=C/C=C/C=C/C=C/C=C/C=C/C=C/[C@H](O[C@@H]2O[C@H](C)[C@@H](O)[C@H](N)[C@@H]2O)C[C@@H]2O[C@](O)(C[C@@H](O)C[C@@H](O)[C@H](O)CC[C@@H](O)C[C@@H](O)CC(=O)O[C@H]1C)C[C@H](O)[C@H]2C(=O)O 0.045

Thanks! And COc1cnc2c3c(nccc13)C(=O)c1ccccc1-2 ? 0.65

Note, next up: COc1c2c3c(ccnc3c3ccccc13)C(=O)C(=O)N2C 50

Repeat with O=C1c2ccccc2-c2nccc3ccnc1c23 0.15
